Molecular target: Human recombinant PDE10A (hPDE10A) (Homo sapiens, UniProt Q9Y233)
Construct: His tag (inferred from metal chelate purification); made in house; host or cells: Sf9 insect cells (baculovirus)
Sequence (Q9Y233 267-1055): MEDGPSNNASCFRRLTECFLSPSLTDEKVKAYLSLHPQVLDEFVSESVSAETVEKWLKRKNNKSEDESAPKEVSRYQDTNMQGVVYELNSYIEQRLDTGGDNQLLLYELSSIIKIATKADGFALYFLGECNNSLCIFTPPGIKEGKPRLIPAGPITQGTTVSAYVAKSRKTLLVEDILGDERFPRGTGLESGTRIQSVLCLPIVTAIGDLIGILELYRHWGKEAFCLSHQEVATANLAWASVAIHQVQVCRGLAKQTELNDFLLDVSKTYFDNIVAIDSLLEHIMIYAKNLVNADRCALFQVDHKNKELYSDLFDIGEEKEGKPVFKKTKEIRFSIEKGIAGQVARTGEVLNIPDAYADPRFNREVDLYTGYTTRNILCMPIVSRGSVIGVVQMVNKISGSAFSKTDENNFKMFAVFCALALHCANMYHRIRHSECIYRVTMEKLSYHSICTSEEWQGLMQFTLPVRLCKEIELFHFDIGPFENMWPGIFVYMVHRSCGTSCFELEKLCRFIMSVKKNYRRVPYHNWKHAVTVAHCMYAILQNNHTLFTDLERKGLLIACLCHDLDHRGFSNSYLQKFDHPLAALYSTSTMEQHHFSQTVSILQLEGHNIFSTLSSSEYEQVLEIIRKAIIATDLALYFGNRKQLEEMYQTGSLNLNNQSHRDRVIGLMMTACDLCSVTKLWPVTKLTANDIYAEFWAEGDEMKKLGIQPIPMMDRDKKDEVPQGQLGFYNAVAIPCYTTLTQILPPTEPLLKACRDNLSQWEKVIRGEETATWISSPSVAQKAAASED
Assay: In vitro assay PDE10A, human clone (SPA, 3H-cAMP hydrolysis)
Assay type: biochemical
Details: human clone by default (no (r) mark); read-out: hPDE10A2 or rPDE10A2 Emax
Measured Quantity: Emax
Show the value, then the unit it is measured in.

Some compounds with known Emax results, for comparison:
Cc1cc([C@@H]2CN(C(=O)c3cc(Cl)ncc3C(F)(F)F)CC[C@H]2C)n2ncnc2n1 | 96%
C[C@@H]1CCN(C(=O)c2ncccc2N)C[C@H]1c1cc(C(F)F)nc2ncnn12 | 26%
O=C(c1cnc2c(Cl)cccc2c1)N1[C@H]2CC[C@H](c3cc(C(F)F)nc4ncnn34)[C@@H]1CC2 | 95%
O=C(c1ccc(C(F)(F)F)c(F)c1)N1[C@H]2CC[C@H](c3cc(C(F)F)nc4ncnn34)[C@@H]1CC2 | 70%
Cc1csc(C(=O)N2[C@H]3CC[C@H](c4cc(C(F)F)nc5ncnn45)[C@@H]2CC3)c1 | 91%
COc1nc(C)cc(C(=O)N2CC[C@@H](C)[C@H](c3cc(C(F)F)nc4ncnn34)C2)c1F | 98%
C[C@@H]1CCN(C(=O)c2ccc3ncsc3c2)C[C@H]1c1cc(C(F)F)nc2ncnn12 | 100%
O=C(c1ccc2ncccc2c1)N1[C@H]2CC[C@H](c3cc(C(F)F)nc4ncnn34)[C@@H]1CC2 | 96%

Exam item: Check the records and state Emax for Cc1cc(C(=O)N2[C@H]3CC[C@H](c4cc(C(F)F)nc5ncnn45)[C@@H]2CC3)c(C)s1
Marked response: 58%

Exam item: Return Emax (reported value) for this compound: C[C@@H]1CCN(C(=O)c2ccnnc2)C[C@H]1c1cc(C(F)F)nc2ncnn12
Marked response: 49%

Exam item: Identify the reported Emax for the following entry. C[C@@H]1CCN(C(=O)c2c(Cl)cncc2Cl)C[C@H]1c1cc(C(F)F)nc2ncnn12
Marked response: 39%

###

Biological target: Rat recombinant PDE10A (rPDE10A2) (Rattus norvegicus, UniProt Q9QYJ6)
Construct: His tag (inferred from metal chelate purification); made in house; host or cells: Sf9 insect cells (baculovirus)
Sequence (Q9QYJ6 whole entry): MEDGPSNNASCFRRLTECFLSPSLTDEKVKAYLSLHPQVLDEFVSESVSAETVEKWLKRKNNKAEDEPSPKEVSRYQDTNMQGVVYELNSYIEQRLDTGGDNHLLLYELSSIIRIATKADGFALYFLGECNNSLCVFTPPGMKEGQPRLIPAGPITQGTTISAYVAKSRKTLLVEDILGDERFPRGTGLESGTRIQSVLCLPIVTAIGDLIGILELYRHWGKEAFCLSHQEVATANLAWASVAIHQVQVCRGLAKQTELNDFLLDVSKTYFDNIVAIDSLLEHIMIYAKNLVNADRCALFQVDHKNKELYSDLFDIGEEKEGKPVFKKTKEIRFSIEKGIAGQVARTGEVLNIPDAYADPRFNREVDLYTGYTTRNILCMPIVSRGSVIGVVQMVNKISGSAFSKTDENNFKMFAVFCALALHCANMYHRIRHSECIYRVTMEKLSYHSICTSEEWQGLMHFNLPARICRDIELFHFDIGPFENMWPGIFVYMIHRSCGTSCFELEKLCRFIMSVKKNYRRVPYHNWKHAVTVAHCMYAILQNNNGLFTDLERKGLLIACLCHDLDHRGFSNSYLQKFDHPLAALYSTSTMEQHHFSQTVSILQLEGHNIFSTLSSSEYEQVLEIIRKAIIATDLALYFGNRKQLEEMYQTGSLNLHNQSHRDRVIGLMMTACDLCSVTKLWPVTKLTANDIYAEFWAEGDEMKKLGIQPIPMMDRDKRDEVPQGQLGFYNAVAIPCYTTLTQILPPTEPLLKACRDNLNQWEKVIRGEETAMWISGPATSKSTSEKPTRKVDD
Assay: In vitro assay PDE10A, rat clone (SPA, 3H-cAMP hydrolysis)
Assay type: biochemical
Settings: rat clone (r); read-out: rPDE10A2 pIC50 (converted)
Measured Quantity: IC50 (nM)
Please state the figure in nM; there is no need to write the unit.

Example entries begin here.
C[C@@H]1CCN(C(=O)c2ccc3c(ccn3CCF)c2)C[C@H]1c1cc(C(F)F)nc2ncnn12 [Compound 89] | 12
C[C@@H]1CCN(C(=O)c2ccc3occc3c2)C[C@H]1c1cc(C(F)F)nc2ncnn12 [Compound 97] | 34.7

Next:
Exam item: Quote IC50 with test system Rat recombinant PDE10A (rPDE10A2) (Rattus norvegicus, UniProt Q9QYJ6) for CC1(c2cc(C(F)F)nc3ncnn23)CCCN(C(=O)c2ccc3occc3c2)C1 (centres unmarked) [Compound 201]
Marked response: 3090

###

Each entry below carries its reported log10(IC50).
Biological target: Human recombinant PDE10A (hPDE10A) (Homo sapiens)
Construct: His tag (inferred from metal chelate purification); made in house; host or cells: Sf9 insect cells (baculovirus)
Assay: In vitro assay PDE10A, human clone (SPA, 3H-cAMP hydrolysis)
Assay type: biochemical
Conditions: human clone (h), default; read-out: hPDE10A2 pIC50 (converted)
In our notation, the value equals log10 of IC50 in nM.

Cc1cc([C@@H]2CC[C@@H]3CC[C@H]2N3C(=O)c2ccc3ncsc3c2)n2ncnc2n1 | 3.73
C[C@@H]1CCN(C(=O)c2cc(F)ccn2)C[C@H]1c1cc(C(F)F)nc2ncnn12 | 3.69
Cc1cc(C(=O)N2CC[C@@H](C)[C@H](c3cc(C(F)F)nc4ncnn34)C2)cc(C)c1C#N | 2.02

Exam item: Jot down log10(IC50) (Human recombinant PDE10A (hPDE10A) (Homo sapiens)) of C[C@@H]1CCN(C(=O)c2cccc(C(C)(C)C#N)c2)C[C@H]1c1cc(C(F)F)nc2ncnn12 .
Marked response: 2.15

Exam item: Find the measured log10(IC50) of C[C@@H]1CCN(C(=O)c2cc(C(C)(C)C)nc(C(C)(C)C)c2)C[C@H]1c1cc(C(F)F)nc2ncnn12 with Human recombinant PDE10A (hPDE10A) (Homo sapiens) as test system.
Marked response: 3.42

Exam item: Param request: log10(IC50) | system Human recombinant PDE10A (hPDE10A) (Homo sapiens) | item CCCC[C@H]1CCN(C(=O)c2cc(C)nc(C)c2)C[C@@H]1c1cc(C(F)F)nc2ncnn12 (single isomer, unassigned)
Marked response: 3.35

Exam item: Print Human recombinant PDE10A (hPDE10A) (Homo sapiens) log10(IC50) for CCc1cc(C(=O)N2CC[C@@H](C)[C@H](c3cc(C(F)F)nc4ncnn34)C2)cc(C)n1 .
Marked response: 1.91

###

Biological target: Human recombinant PDE2A (hPDE2A) (Homo sapiens)
Construct: His tag (inferred from metal chelate purification); made in house; host or cells: Sf9 insect cells (baculovirus)
Assay: In vitro assay PDE2A (SPA, 3H-cGMP hydrolysis)
Assay type: biochemical
Conditions: read-out: hPDE2A pIC50 (converted)
Reported IC50 values follow for various compounds
Write it as a number; the unit nM goes unstated.

Example entries and their recorded answers appear below.
C[C@@H]1CCN(C(=O)c2nccnc2Cl)C[C@H]1c1cc(C(F)F)nc2ncnn12 [Compound 237] | 186
Cc1cc(C(=O)N2[C@H]3CC[C@H](c4cc(C(F)F)nc5ncnn45)[C@@H]2CC3)cc(C)c1C#N [Compound 299] | 7.76
Cc1csc(C(=O)N2CC[C@H](C)[C@@H](c3cc(C(F)F)nc4ncnn34)C2)c1 [Compound 213] | 2340

Kindly review the next compound as well.
Exam item: Give a short answer stating reported IC50 for COCc1cc(C(=O)N2CC[C@@H](C)[C@H](c3cc(C(F)F)nc4ncnn34)C2)cc(C)n1 [Compound 288] .
Marked response: 2.69

###

Target: Human recombinant PDE3A (hPDE3A) (Homo sapiens)
Construct: purchased Scottish Biomedical; host or cells: Sf9 insect cells
Sequence (Q14432 whole entry): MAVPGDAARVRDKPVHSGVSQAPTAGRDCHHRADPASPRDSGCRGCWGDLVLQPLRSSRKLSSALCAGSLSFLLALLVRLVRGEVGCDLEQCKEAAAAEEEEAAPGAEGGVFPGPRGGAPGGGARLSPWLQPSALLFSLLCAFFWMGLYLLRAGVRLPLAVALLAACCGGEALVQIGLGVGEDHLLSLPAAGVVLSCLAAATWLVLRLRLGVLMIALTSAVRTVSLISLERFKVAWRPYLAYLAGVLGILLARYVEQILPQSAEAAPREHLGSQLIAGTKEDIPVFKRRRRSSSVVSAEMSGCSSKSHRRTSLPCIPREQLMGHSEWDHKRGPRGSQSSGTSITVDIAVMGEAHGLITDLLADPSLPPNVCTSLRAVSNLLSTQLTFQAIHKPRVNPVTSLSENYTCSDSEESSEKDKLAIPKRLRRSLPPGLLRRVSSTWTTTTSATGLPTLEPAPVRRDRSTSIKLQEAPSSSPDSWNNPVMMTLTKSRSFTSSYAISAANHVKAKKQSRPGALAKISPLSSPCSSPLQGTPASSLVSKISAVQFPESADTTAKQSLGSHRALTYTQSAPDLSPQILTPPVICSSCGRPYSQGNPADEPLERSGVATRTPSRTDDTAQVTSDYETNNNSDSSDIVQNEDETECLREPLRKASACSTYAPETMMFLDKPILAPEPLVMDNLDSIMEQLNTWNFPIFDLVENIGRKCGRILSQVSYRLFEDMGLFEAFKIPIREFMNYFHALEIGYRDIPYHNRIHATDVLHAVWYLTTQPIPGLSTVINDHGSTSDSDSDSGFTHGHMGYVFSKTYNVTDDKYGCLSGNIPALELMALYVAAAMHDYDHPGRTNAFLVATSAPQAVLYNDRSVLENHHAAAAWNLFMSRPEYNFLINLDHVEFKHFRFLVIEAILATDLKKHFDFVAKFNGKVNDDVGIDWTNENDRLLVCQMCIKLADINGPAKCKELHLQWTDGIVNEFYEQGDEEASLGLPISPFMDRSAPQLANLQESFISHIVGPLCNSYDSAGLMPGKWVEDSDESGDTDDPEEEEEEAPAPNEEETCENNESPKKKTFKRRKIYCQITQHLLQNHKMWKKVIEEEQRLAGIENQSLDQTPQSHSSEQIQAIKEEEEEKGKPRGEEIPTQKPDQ
Experiment: In vitro assay PDE3A (SPA, 3H-cAMP hydrolysis);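 note: the method names PDE3A and the table heading PDE3B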
Assay type: biochemical
Settings: hPDE3B pIC50; read-out: pIC50 (converted)
Measured Quantity: IC50 (µM)
The figure you give is taken to be in µM; do not add the unit.

Look over these answered cases.
O=C(c1cn2ccsc2n1)N1[C@H]2CC[C@H](c3cc(C(F)F)nc4ncnn34)[C@@H]1CC2 | 8.51
COc1cc(C(=O)N2[C@H]3CC[C@H](c4cc(C(F)F)nc5ncnn45)[C@@H]2CC3)cc(C)n1 | 6.92
O=C(c1ccc2cnccc2c1)N1[C@H]2CC[C@H](c3cc(C(F)F)nc4ncnn34)[C@@H]1CC2 | 3.55

In the following, a different molecule is considered.
Exam item: Name the recorded IC50 of the molecule listed here: Cc1cc([C@@H]2CN(C(=O)c3cc(C4CC4)ncc3F)CC[C@H]2C)n2ncnc2n1
Marked response: 1.05

###

Molecular target: Human recombinant PDE2A (hPDE2A) (Homo sapiens, UniProt O00408)
Construct: His tag (inferred from metal chelate purification); made in house; host or cells: Sf9 insect cells (baculovirus)
Sequence (O00408 whole entry): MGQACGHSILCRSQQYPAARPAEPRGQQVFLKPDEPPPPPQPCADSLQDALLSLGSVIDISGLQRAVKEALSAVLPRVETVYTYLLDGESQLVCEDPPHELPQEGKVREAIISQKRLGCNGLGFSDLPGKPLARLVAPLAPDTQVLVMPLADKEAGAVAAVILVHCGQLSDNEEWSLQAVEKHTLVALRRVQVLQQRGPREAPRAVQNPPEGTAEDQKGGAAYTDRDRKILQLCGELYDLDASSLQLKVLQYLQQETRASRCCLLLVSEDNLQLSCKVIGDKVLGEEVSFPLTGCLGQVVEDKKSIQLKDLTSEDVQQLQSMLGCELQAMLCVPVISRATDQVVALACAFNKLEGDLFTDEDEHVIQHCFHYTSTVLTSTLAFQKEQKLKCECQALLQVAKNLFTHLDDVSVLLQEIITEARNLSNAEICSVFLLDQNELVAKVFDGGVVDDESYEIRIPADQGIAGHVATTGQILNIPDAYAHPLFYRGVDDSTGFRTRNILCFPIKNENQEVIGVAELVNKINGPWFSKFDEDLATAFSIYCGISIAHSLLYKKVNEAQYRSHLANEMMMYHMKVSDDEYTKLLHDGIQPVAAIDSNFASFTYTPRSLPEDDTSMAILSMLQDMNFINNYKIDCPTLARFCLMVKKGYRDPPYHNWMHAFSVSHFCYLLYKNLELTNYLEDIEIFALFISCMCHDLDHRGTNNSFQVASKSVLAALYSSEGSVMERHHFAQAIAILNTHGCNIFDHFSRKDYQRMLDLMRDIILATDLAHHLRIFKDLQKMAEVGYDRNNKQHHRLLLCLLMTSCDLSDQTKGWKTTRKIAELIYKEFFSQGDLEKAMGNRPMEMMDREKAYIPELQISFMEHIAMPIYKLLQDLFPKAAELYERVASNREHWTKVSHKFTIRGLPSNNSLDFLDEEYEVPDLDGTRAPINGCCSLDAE
Experiment: In vitro assay PDE2A (SPA, 3H-cGMP hydrolysis)
Type: biochemical
Details: human recombinant PDE2A, 10 μM cGMP substrate; read-out: hPDE2A pIC50 (converted)
IC50 strictly under 3 nM means yes (1); at 3 nM or over means no (0).

Recorded results for 2 compounds are shown here.
C[C@@H]1CCN(C(=O)c2ccncc2Cl)C[C@H]1c1cc(C(F)F)nc2ncnn12 | no (0)
COc1ccc(C(=O)N2CC[C@@H](C)[C@H](c3cc(C(F)F)nc4ncnn34)C2)cn1 | no (0)

Exam item: Please let me know if C[C@@H]1CCN(C(=O)c2cnc(O)c(Cl)c2)C[C@H]1c1cc(C(F)F)nc2ncnn12 shows IC50 below 3 nM.
Marked response: no (0)

Exam item: Does this compound meet the criterion IC50 < 3 nM? Cc1cc(C(=O)N2CC[C@@H](C)[C@H](c3cc(C(F)F)nc4ncnn34)C2)c(C(F)(F)F)cn1
Marked response: no (0)

Exam item: Does Cc1c(C(=O)N2CC[C@@H](C)[C@H](c3cc(C(F)F)nc4ncnn34)C2)ccc2c1OCO2 have IC50 strictly under 3 nM?
Marked response: no (0)

Exam item: Item C[C@@H]1CCN(C(=O)c2ncc[nH]2)C[C@H]1c1cc(C(F)F)nc2ncnn12 : IC50 beneath 3 nM, strictly?
Marked response: no (0)

Exam item: Determine if C[C@@H]1CCN(C(=O)c2cc(-c3ccco3)nn2C)C[C@H]1c1cc(C(F)F)nc2ncnn12 shows IC50 strictly lower than 3 nM.
Marked response: yes (1)

Exam item: Does the reported IC50 of C[C@@H]1CCN(C(=O)c2ccn3cccc3c2)C[C@H]1c1cc(C(F)F)nc2ncnn12 stay below 3 nM?
Marked response: yes (1)

Exam item: Field: below-cutoff. Rule: recorded IC50 strictly less than 3 nM. Subject: CC(C)c1n[nH]cc1C(=O)N1CC[C@@H](C)[C@H](c2cc(C(F)F)nc3ncnn23)C1
Marked response: no (0)

Exam item: For C[C@@H]1CCN(C(=O)c2cccc(N)n2)C[C@H]1c1cc(C(F)F)nc2ncnn12 , is the recorded IC50 below the cut-off of 3 nM?
Marked response: no (0)

Exam item: Could you please tell me whether IC50 recorded for C[C@@H]1CCN(C(=O)c2noc3ccccc23)C[C@H]1c1cc(C(F)F)nc2ncnn12 is less than 3 nM?
Marked response: no (0)
